Reference source: BindingDB's records for doi:10.1021/jm000209n

test: Tested in vitro against HIV-1 LAI from MT-4 cells using MTT assay
Metric Name: EC50

Smiles Representation	Recorded Result
Cc1cn([C@H]2C[C@H](N=[N+]=[N-])[C@@H](CO)O2)c(=O)[nH]c1=O	38 nM
C#C[C@]1(CO)O[C@@H](n2cnc3cncnc32)C[C@H]1O	117000 nM
C#C[C@]1(CO)O[C@@H](n2cnc3c(=O)[nH]c(N)nc32)C[C@H]1O	1.4 nM
C#C[C@]1(CO)O[C@@H](n2cnc3c(N)ncnc32)C[C@H]1O	12 nM
C#C[C@]1(CO)O[C@@H](n2cc(Br)c(=O)[nH]c2=O)C[C@H]1O	2300 nM
